Target: huLTBP1 proTGFβ1 (Homo sapiens, UniProt P01137+Q14766)
Sequence (P01137 30-390): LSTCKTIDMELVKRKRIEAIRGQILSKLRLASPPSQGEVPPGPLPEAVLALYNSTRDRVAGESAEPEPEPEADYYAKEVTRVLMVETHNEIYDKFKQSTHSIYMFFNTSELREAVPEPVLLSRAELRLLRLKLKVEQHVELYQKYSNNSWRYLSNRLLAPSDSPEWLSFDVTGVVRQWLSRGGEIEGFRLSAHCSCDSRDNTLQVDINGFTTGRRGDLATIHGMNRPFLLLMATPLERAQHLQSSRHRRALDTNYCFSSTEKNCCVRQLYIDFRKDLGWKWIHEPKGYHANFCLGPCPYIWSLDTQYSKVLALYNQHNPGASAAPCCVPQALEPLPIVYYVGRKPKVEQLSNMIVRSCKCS
Sequence (Q14766 347-1721 limits assumed): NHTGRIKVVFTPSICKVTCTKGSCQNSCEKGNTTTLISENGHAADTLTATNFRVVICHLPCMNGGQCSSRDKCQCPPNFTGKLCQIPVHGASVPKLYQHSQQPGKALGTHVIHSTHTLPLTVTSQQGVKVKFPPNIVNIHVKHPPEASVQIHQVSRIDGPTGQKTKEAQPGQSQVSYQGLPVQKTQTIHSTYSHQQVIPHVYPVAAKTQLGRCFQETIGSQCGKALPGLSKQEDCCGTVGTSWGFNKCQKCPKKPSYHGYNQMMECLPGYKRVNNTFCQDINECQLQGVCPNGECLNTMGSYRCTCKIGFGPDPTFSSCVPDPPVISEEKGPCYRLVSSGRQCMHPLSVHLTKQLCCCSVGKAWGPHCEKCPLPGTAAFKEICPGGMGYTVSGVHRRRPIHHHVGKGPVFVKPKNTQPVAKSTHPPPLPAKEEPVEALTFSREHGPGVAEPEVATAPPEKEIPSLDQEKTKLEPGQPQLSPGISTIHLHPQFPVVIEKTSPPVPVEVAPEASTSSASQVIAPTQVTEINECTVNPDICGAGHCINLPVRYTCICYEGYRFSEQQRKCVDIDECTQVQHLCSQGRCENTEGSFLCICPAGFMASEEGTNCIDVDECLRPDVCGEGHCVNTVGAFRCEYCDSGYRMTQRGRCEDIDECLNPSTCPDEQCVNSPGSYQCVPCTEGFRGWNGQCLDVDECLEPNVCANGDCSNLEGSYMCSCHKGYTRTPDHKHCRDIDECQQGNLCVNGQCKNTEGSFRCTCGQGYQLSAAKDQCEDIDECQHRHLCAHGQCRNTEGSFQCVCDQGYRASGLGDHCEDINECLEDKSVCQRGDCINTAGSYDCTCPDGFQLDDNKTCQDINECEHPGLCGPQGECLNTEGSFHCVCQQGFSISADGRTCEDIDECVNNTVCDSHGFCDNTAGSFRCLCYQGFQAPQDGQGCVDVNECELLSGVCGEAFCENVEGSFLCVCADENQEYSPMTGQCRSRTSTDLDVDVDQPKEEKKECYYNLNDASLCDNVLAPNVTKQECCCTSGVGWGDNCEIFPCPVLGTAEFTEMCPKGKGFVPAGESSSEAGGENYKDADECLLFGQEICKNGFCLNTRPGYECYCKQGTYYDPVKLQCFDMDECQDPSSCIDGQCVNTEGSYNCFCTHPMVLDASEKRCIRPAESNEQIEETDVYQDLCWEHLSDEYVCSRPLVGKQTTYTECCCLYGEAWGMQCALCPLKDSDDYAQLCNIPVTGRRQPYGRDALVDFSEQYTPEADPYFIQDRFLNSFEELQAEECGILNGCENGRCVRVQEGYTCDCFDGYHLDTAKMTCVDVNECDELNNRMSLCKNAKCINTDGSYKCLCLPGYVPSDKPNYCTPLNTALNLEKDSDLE
Assay: SPR (Biacore 8K) monovalent binding kinetics of Fabs, biotinylated antigen captured
Parameters: biotin (complex biotinylated)
Conditions: Fab, huLTBP1 proTGFβ1; SR-AB42-HuFab average of five, SR-AB63-HuFab average of four replicate experiments
outcome-measure: kd (s⁻¹)

- SR-AB49-HuFab (antibody, V domains shown) VH: QVQLVESGGGVVQPGRSLRLSCAASGFTFRSYVMHWVRQAPGKGLEWVAVISHEGSGKYYADSVKGRFTISRDNSKNTLYLQMNSLRAEDTAVYYCARPRIAARRGGFGSWGQGTLVTVSS VL: NFMLTQPHSVSESPGKTVTISCTRSSGNIDYNYVQWYQQRPGSSPTTVIYEDNVRPSGVPDRFSGSIDSSSNSASLTISGLKTEDEADYYCQGYDWDTQGVVFGGGTKLTVL: 0.000138
